Measured IC50 of individual entries
# Assay system: Fatty acid synthase (Homo sapiens, UniProt P49327)
# Sequence (P49327 whole entry): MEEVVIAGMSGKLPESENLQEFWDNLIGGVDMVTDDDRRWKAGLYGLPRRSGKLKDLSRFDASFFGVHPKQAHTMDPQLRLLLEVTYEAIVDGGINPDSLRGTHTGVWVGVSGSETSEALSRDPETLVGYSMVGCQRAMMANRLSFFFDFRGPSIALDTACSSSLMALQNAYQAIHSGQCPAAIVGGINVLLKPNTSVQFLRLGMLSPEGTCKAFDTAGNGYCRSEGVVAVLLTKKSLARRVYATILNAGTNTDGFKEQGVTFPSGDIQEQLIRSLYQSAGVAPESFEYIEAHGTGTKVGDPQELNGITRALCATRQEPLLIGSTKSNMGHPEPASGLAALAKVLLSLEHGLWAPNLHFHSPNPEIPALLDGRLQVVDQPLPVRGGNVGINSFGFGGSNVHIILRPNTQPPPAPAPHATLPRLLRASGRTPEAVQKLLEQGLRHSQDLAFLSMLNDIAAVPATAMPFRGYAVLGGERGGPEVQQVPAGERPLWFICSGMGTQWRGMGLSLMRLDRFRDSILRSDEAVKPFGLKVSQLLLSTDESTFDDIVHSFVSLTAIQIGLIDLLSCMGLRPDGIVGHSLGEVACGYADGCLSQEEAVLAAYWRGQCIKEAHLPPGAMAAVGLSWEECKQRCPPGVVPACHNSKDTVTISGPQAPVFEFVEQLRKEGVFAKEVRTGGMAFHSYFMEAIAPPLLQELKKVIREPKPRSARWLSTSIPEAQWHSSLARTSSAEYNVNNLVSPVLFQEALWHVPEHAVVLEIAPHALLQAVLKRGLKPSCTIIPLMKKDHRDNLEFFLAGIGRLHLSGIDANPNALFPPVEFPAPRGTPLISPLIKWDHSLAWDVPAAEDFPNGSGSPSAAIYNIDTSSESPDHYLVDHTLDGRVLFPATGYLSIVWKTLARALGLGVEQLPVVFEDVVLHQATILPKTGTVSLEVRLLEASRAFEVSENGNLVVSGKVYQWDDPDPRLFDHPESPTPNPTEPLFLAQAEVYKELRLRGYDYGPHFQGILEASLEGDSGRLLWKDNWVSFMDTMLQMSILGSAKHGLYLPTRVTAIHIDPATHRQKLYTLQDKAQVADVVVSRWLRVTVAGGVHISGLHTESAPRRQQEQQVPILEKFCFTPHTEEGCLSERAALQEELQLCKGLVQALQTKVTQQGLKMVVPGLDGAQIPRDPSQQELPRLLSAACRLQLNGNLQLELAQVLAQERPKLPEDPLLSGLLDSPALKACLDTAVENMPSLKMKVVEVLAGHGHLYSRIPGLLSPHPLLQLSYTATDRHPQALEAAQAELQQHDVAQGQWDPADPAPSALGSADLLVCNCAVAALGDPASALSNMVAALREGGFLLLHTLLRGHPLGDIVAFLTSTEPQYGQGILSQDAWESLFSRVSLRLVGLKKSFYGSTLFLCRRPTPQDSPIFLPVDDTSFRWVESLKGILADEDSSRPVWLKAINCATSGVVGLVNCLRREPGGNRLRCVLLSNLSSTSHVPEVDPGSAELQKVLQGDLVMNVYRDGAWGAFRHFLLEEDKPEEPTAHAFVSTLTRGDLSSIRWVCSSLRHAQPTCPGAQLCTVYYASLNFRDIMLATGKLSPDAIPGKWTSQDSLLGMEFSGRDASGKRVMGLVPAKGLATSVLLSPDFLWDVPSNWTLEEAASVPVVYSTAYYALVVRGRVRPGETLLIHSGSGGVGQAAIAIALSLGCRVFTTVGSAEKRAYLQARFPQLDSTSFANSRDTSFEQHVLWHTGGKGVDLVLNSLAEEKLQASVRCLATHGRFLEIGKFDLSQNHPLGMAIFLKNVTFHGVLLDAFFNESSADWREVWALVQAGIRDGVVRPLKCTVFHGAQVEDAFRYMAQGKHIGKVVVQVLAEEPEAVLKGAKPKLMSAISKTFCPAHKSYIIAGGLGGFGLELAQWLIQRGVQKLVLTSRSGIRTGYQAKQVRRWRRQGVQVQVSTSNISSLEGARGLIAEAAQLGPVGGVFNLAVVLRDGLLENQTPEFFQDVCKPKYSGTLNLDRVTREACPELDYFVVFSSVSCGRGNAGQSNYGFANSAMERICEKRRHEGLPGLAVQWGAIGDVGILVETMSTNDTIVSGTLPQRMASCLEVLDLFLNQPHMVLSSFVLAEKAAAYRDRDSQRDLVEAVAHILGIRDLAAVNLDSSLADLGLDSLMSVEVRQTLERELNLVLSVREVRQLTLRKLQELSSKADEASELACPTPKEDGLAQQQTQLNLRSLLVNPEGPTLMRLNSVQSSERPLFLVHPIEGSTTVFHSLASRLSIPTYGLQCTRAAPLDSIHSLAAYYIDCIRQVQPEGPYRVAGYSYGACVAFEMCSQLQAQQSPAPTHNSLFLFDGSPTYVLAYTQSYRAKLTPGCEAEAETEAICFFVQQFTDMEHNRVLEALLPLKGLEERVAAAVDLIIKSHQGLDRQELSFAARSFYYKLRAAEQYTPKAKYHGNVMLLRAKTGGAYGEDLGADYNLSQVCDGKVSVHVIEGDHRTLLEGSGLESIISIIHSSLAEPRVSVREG
# Measurement protocol: inhibition of human FAS-TE enzyme activity – biochemical, endpoint fluorescence intensity, uHTS hits, dose response (AID 624327);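 further: fluorescence from hydrolysis of an O-methyl fluorescein acyl ester substrate by the enzyme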
# Assay type: functional
Calls of active or inactive are those of the source. No stated cut-off is given here; in the data, active = IC50 of 20 µM or less and inactive = more.
Observed property: IC50

Compound | Observed
O=[N+]([O-])c1ccc(S(=O)(=O)Nc2nnc(C3CCCCC3)s2)cc1 | 7.87 µM (active)
CCN(C(=O)COC(=O)c1cc([N+](=O)[O-])ccc1N1CCOCC1)c1ccccc1 | 1.94 µM (active)
CCC(CC)COC(=O)C1=C(C)NC(=O)NC1c1ccc([N+](=O)[O-])cc1 (stereo not given) | 4.35 µM (active)
CC(C)(C)OC(=O)NCCCC[C@H](NC(=O)c1[nH]cnc1C(=O)Nc1ccccc1)C(=O)OC(C)(C)C | 2.63 µM (active)
Cc1ccc2c(C)nc(N=C(N)NS(=O)(=O)c3ccc([N+](=O)[O-])cc3)nc2c1 | 10.9 µM (active)
Cn1c(=O)c([N+](=O)[O-])c(N2CCN(Cc3ccc4c(c3)OCO4)CC2)c2ccccc21 | 2.71 µM (active)
O=C1OC(c2ccccc2)=NC12CC2c1ccc(Cl)cc1 (stereo not given) | 0.293 µM (active)
O=C(O)c1ccc(N/N=C/c2ccc(-c3cc(Cl)ccc3Cl)o2)cc1 | 3.61 µM (active)
CC(C)(C)NC(=O)NC(=O)COC(=O)Cc1ccc(Cl)cc1Cl | 9.97 µM (active)
CC(C)N1C(=O)S/C(=C\c2ccc(-c3ccc(Cl)c(C(=O)O)c3)o2)C1=O | 5.26 µM (active)

Data origin, for the record: ChEMBL document CHEMBL1201862
